Property: pIC50; scope: individual compounds
Tested on: HCC827 cells (EGFR Exon19 del, non-small cell lung cancer cells)
Test: Cell viability assay (WST/CCK8), HCC827 cells
Assay type: cell-based
Details: Homo sapiens, HCC827, 72 h, HCC827 (Exon19 Del), 72 hours, WST (CCK8); read-out: IC50 (half inhibitory concentration)
Text: The cell lines with abnormal EGFR expression used are as follows: • HCC827 cells (EGFR Exon19 del, non-small cell lung cancer cells); • PC9 cells (EGFR Exon 19 del, non-small cell lung cancer cells); • PC9BracA1 (EGFR Exon 19 del+T790M, non-small cell lung cancer cells) • H1975 (EGFR Exon T790M+L858R mutation, non-small cell lung cancer cell line) • BT474 cells (HER2 positive breast cancer cells) […]
pIC50: −log10 of the molar value.
MEASURED PARAMETER: pIC50

COMPOUND	TARGET SYSTEM	READING
COc1cc2ncnc(Nc3ccc(F)c(Cl)c3)c2cc1NC(=O)/C=C/CN1CCN(C(=O)CCCNc2cccc3c2C(=O)N(C2CCC(=O)NC2=O)C3=O)CC1 (stereo not drawn) [SIAIS249062]	HCC827 cells (EGFR Exon19 del, non-small cell lung cancer cells)	8.43
C=CC(=O)Nc1cc2c(Nc3ccc(F)c(Cl)c3)ncnc2cc1OCCCN1CCN(C(=O)CCCCCNc2cccc3c2C(=O)N(C2CCC(=O)NC2=O)C3=O)CC1 (stereo not drawn) [SIAIS262125]	HCC827 cells (EGFR Exon19 del, non-small cell lung cancer cells)	9.52
COc1cc2ncnc(Nc3ccc(F)c(Cl)c3)c2cc1NC(=O)/C=C/CN1CCN(C(=O)CCCCCNc2cccc3c2CN(C2CCC(=O)NC2=O)C3=O)CC1 (stereo not drawn) [SIAIS249059]	HCC827 cells (EGFR Exon19 del, non-small cell lung cancer cells)	7.95
COc1cc2ncnc(Nc3ccc(F)c(Cl)c3)c2cc1NC(=O)/C=C/CN1CCC(N2CCN(C(=O)CCCCCCCCCSc3cccc4c3CN(C3CCC(=O)NC3=O)C4=O)CC2)CC1 (stereo not drawn) [SIAIS337037]	HCC827 cells (EGFR Exon19 del, non-small cell lung cancer cells)	9.52
COc1cc2ncnc(Nc3ccc(F)c(Cl)c3)c2cc1NC(=O)/C=C/CN1CCC(N2CCN(C(=O)CNc3cccc4c3C(=O)N(C3CCC(=O)NC3=O)C4=O)CC2)CC1 (stereo not drawn) [SIAIS262036]	HCC827 cells (EGFR Exon19 del, non-small cell lung cancer cells)	8.62
COc1cc2ncnc(Nc3ccc(F)c(Cl)c3)c2cc1NC(=O)/C=C/CN1CCC(NC(=O)CSc2cccc3c2CN(C2CCC(=O)NC2=O)C3=O)CC1 (stereo not drawn) [SIAIS262110]	HCC827 cells (EGFR Exon19 del, non-small cell lung cancer cells)	7.70
COc1cc2ncnc(Nc3ccc(F)c(Cl)c3)c2cc1NC(=O)/C=C/CN1CCC(N)CC1 [SIAIS249077]	HCC827 cells (EGFR Exon19 del, non-small cell lung cancer cells)	7.70
COc1cc2ncnc(Nc3ccc(F)c(Cl)c3)c2cc1NC(=O)/C=C/CN1CCC(N2CCN(C(=O)CCCCCCNc3cccc4c3C(=O)N(C3CCC(=O)NC3=O)C4=O)CC2)CC1 (stereo not drawn) [SIAIS262037]	HCC827 cells (EGFR Exon19 del, non-small cell lung cancer cells)	8.80
COc1cc2ncnc(Nc3ccc(F)c(Cl)c3)c2cc1NC(=O)/C=C/CN1CCN(C(=O)CCCCCCSc2cccc3c2CN(C2CCC(=O)NC2=O)C3=O)CC1 (stereo not drawn) [SIAIS219190]	HCC827 cells (EGFR Exon19 del, non-small cell lung cancer cells)	7.73
COc1cc2ncnc(Nc3ccc(F)c(Cl)c3)c2cc1NC(=O)/C=C/CN1CCC(NC(=O)CNc2cccc3c2C(=O)N(C2CCC(=O)NC2=O)C3=O)CC1 (stereo not drawn) [SIAIS249081]	HCC827 cells (EGFR Exon19 del, non-small cell lung cancer cells)	7.92
COc1cc2ncnc(Nc3ccc(F)c(Cl)c3)c2cc1NC(=O)/C=C/CN1CCC(NCCCC#Cc2cccc3c2CN(C2CCC(=O)NC2=O)C3=O)CC1 (stereo not drawn) [SIAIS262116]	HCC827 cells (EGFR Exon19 del, non-small cell lung cancer cells)	7.96
COc1cc2ncnc(Nc3ccc(F)c(Cl)c3)c2cc1NC(=O)/C=C/CN1CCNCC1 [Dacomitinib derivative A]	HCC827 cells (EGFR Exon19 del, non-small cell lung cancer cells)	8.40
